# PROTOCOL: viability loss with induced miR-34 in A549 – imaging, A549 dox-inducible miR-34, nuclei and caspase counts, primary screen (AID 1347080)
# CONDITION DETAILS: A549 miR-34 inducible, Hoechst nuclei count, 48 h; measured here: total cells without miR-34 induction
VALUE TYPE: cell count
In your answer, state the number alone without any accompanying words.

Reference set, count: 3
# COMPOUND, VALUE TYPE, OBS VALUE
rows = [
    ("Cn1c(Nc2ccc(C(F)(F)F)cc2)nc2cc(Oc3ccnc(-c4ncc(C(F)(F)F)[nH]4)c3)ccc21", "cell count", 2330),
    ("Cc1c(C2CCN(CCc3ccccc3)CC2)noc1-c1ccc(Cl)cc1", "cell count", 7590),
    ("COc1cccc2cc(-c3nc(C4CCC(C(=O)O)CC4)n4ncnc(N)c34)[nH]c12 (stereo not given)", "cell count", 3360),
]

Consider the compound OC[C@H]1O[C@@H](n2cnc3c(NC4CCCC4)nc(Cl)nc32)[C@H](O)[C@@H]1O and give its measured cell count. 9980

Consider the compound Cn1ccc2cc(NC(=O)Nc3cccnc3)ccc21 and give its measured cell count. 8540

Consider the compound C#Cc1cccc(Nc2ncnc3cc4c(cc23)OCCOCCOCCO4)c1 and give its measured cell count. 7200

Consider the compound O=C(CCCC[C@@H]1SC[C@@H]2NC(=O)N[C@@H]21)NCCCC[C@H](NC(=O)CCN1C(=O)C=CC1=O)C(=O)O and give its measured cell count. 5910

Consider the compound CC(=O)OCOC(c1ccc2ccccc2c1)P(=O)(OCOC(C)=O)OCOC(C)=O (stereo not given) and give its measured cell count. 2860

Consider the compound CC1Nc2ccc(Cl)cc2S(=O)(=O)N1 (stereo not given) and give its measured cell count. 9300

Consider the compound N[C@@H](C(=O)O)[C@@H](OCc1ccccc1)C(=O)O (racemic) and give its measured cell count. 8700

Consider the compound CNCc1ccc(-c2cc(-c3nc(-c4ccc(S(=O)(=O)C(C)C)cc4)cnc3N)on2)cc1 and give its measured cell count. 2210

---

# PROTOCOL: viability loss in pontine glioma line – cell-based, SU-DIPG-XIII, MIPE5.0, CellTiter-Glo, qHTS, dose response (AID 1347064);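 for AC50: cells exposed to compound for 48 hours before the viability read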
# CONDITION DETAILS: CellTiter-Glo ATP luminescence
Inconclusive results are not listed. Calls of active or inactive are those of the source. The limit is not given here; nearly all actives have AC50 up to about 23 µM.
// one of y for active, n for inactive, no free text

What outcome does the record of this test show for CCOCc1nc2c(N)nc3ccccc3c2n1CC(C)(C)O ? n

What outcome does the record of this test show for CN(C)Cc1ccc(S(=O)(=O)n2ccc(/C=C/C(=O)NO)c2)cc1 ? y

What outcome does the record of this test show for OC[C@H]1O[C@@H](n2cnc3c2NC=NC[C@H]3O)C[C@@H]1O ? n

What outcome does the record of this test show for CC1(N)CCN(c2cnc(-c3cccc(Cl)c3Cl)c(N)n2)CC1 ? n

What outcome does the record of this test show for CN[C@@H]1C[C@H]2O[C@@](C)([C@@H]1OC)n1c3ccccc3c3c4c(c5c6ccccc6n2c5c31)C(=O)N[C@H]4O ? y

---

# PROTOCOL: drug combination growth inhibition, ovarian cancer – cell-based, oncology-focused library, rucaparib conditional, profiling panel (AID 1508598)
# CONDITION DETAILS: patient-derived ovarian cancer cells, CellTiter-Glo viability, 144 h; at 0.313 µM; OCI-C5x cells; with rucaparib 10 µM; 100% = cells with rucaparib alone
Activity calls are given as the source filed them.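 How the source made its calls: active means normalized viability below 100% at a tested concentration; inactive means the rest.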
// one of true (1) for active, false (0) for inactive, no free text

Examples with answers:
# RECORD SMILES, ASSIGNED CLASS
rows = [
    ("O=C(/C=C/c1cccc(S(=O)(=O)Nc2ccccc2)c1)NO", "true (1)"),
    ("COC(=O)Nc1ccc(-c2nc(N3CCOCC3)c3cnn(C4CCN(C(=O)OC)CC4)c3n2)cc1", "false (0)"),
    ("COc1nc(C)cnc1NS(=O)(=O)c1cccnc1-c1ccc(-c2nnco2)cc1", "false (0)"),
    ("Nc1ccc(C(=O)Nc2cccc(-c3nc(N4CCOCC4)c4oc5ncccc5c4n3)c2)cn1", "false (0)"),
    ("CCOc1ccn(-c2ccc(F)cc2)c(=O)c1C(=O)Nc1ccc(Oc2ccnc(N)c2Cl)c(F)c1", "false (0)"),
]

What outcome does the record of this test show for CN1CCC(CNc2ccc3ncc(-c4cccc(OC(F)(F)F)c4)n3n2)CC1 ? false (0)

What outcome does the record of this test show for CC(=O)Nc1cccc(-n2c(=O)n(C3CC3)c(=O)c3c(Nc4ccc(I)cc4F)n(C)c(=O)c(C)c32)c1 ? true (1)

What outcome does the record of this test show for Cc1nc(Nc2n[nH]c3c2CN(C(=O)N[C@H](CN(C)C)c2ccccc2)C3(C)C)c2sccc2n1 ? false (0)

What outcome does the record of this test show for Fc1cc(-c2cccc3ncc(-c4cnn(C5CCNCC5)c4)nc23)cc(F)c1CN1CCOCC1 ? false (0)

# credit: PubChem BioAssay
